TARGET: human recombinant PDE9 protein (Homo sapiens)
Construct: His-tag (inferred from the Ni column purification; a myc His-tag vector is named only for the HEK293 expression check)
Sequence (O76083 whole entry): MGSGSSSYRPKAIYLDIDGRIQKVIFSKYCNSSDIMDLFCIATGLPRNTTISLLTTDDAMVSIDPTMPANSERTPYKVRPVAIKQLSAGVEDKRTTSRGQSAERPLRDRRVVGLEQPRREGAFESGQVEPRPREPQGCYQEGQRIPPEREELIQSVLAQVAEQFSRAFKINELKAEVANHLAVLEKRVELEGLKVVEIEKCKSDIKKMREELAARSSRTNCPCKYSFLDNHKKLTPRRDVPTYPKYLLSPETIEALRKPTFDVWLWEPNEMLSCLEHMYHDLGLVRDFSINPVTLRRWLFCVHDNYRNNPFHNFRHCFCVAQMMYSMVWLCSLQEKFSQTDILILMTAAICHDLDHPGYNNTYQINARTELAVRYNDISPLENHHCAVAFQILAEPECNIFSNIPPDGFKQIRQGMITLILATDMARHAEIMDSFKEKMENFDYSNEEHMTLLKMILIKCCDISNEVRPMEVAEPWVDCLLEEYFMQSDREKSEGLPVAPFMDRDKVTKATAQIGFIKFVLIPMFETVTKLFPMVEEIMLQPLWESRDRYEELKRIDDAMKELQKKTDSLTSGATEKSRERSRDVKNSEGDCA
ASSAY: PDE9 inhibitory activity test (measurement of PDE9 inhibitory action, [3H]-cGMP)
RUN PARAMETERS: PDE9 IC50, human recombinant PDE9, 30° C., 10 min
pIC50: −log10 of the molar value.
MEASURED PARAMETER: pIC50

>>> observed_result("COc1cc(C)c(-c2ccc3c(c2)[nH]c(=O)c2cnn(C4CCCOCC4)c23)c(C)c1 (single isomer, unassigned) [42 (−)]")
7.66
>>> observed_result("COc1nc(CF)cc(C)c1-c1ccc2c(c1)[nH]c(=O)c1cnn(C3CCOCC3)c12 [Example 17]")
8.22
>>> observed_result("CCOc1cc(C)c(-c2ccc3c(c2)[nH]c(=O)c2cnn([C@H]4CCOC4)c23)c(C)n1 [Example 62]")
7.95
>>> observed_result("Cc1cc(Cl)c(-c2ccc3c(c2)[nH]c(=O)c2cnn(C4CCOCC4)c23)c(C)n1 [Example 9]")
7.66
>>> observed_result("COc1cc(C)c(-c2ccc3c(c2)[nH]c(=O)c2cnn(C4CCCOCC4)c23)c(C)c1 (single isomer, unassigned) [42 (+)]")
8.06
>>> observed_result("Cc1cnc(OC(F)F)c(C)c1-c1ccc2c(c1)[nH]c(=O)c1cnn([C@H]3CCOC3)c12 [Example 49]")
7.91
>>> observed_result("COc1nc(CF)cc(C)c1-c1ccc2c(c1)[nH]c(=O)c1cnn(C3CCOC3)c12 (single isomer, unassigned) [31 (−)]")
8.13
